Target: p52p52 homodimer (Homo sapiens, UniProt Q00653 4-332)
Sequence: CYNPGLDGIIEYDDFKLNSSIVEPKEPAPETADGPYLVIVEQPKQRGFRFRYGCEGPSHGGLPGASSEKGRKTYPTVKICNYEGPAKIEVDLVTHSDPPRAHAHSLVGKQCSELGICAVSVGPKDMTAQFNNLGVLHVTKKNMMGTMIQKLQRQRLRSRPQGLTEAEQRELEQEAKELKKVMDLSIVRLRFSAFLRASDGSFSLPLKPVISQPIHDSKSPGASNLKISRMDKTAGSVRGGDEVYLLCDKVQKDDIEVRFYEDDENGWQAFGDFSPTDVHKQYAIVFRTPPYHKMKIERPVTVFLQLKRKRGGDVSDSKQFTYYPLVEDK
Test: protein binding microarray; high values mean tight binding
Details: dsDNA, one strand shown
readout: binding signal (z-score)
Write the value in z-score as a bare number.

## Input For CGATACACCCT , what is its reported binding signal?
## Output -0.36

## Input For AAGTGAACCCT , what is its reported binding signal?
## Output -0.646

## Input For AGGGACGTCCT , what is its reported binding signal?
## Output 1.06

## Input For AGAATTGCCCT , what is its reported binding signal?
## Output -0.409

## Input For CGAGGTGCCCT , what is its reported binding signal?
## Output -0.61

## Input For AGAAGTCTCCT , what is its reported binding signal?
## Output -0.738

## Input For GAAGATGCCCC , what is its reported binding signal?
## Output 0.0127

## Input For GGATGCATCCC , what is its reported binding signal?
## Output -0.436

## Input For GGGGATTCCCT , what is its reported binding signal?
## Output 3.18

## Input For AGAATGCTCCC , what is its reported binding signal?
## Output -0.418
